Each entry below carries its reported IC50.
Subject of test: FAAH (Homo sapiens, UniProt O00519)
Construct: endogenous in cells
Sequence (O00519 whole entry): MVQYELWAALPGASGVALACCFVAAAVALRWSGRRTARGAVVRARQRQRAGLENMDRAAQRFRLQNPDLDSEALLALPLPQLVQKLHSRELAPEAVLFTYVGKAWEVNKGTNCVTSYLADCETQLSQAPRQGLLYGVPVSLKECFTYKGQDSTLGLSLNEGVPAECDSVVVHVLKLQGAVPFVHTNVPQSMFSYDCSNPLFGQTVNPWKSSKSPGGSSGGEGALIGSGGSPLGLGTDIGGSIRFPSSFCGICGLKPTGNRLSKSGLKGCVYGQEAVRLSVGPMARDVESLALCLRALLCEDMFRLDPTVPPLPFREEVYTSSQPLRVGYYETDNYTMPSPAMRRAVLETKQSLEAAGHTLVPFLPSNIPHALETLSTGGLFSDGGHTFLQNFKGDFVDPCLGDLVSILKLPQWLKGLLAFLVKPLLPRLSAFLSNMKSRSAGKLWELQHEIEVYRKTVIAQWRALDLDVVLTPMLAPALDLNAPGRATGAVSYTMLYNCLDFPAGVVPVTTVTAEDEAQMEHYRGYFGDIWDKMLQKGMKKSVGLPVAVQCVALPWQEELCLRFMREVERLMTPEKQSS
Assay remarks: FAAH activity: hydrolysis of [3H]-AEA in U937 cell homogenates
Condition label: [3H]-AEA hydrolysis, final 100 nM AEA, read-out: FAAH inhibition IC50
Value expressed in µM; do not type the unit.

In [3]: df
Out[3]:
                                   molecule  result_type  result_value
0  COc1ccc(C/N=C2\S/C(=C\c3ccc4c(c3)OCCO4)C(=O)N2CC(C)C)cc1 [24_Q_X]         IC50         0.427

input: Tell me measured IC50 for Cc1ccc(/N=C2\S/C(=C\c3ccc4[nH]cnc4c3)C(=O)N2CC(C)C)cc1 [04_A_X] please.
output: 14.5

* * *

Subject of test: FAAH (Homo sapiens)
Construct: endogenous in cells
Assay remarks: FAAH activity: hydrolysis of [3H]-AEA in U937 cell homogenates
Condition label: [3H]-AEA hydrolysis, final 100 nM AEA, read-out: FAAH inhibition IC50
Result type: IC50

In [3]: df
Out[3]:
                                   compound  result_type  result_value
0  O=C1/C(=C/c2ccccc2)S/C(=N\Cc2ccccc2)N1c1ccccc1 [23_C_N]         IC50       > 10 µM
1  O=C1/C(=C/c2ccc3[nH]ccc3c2)S/C(=N\Cc2ccc(F)cc2)N1c1ccccc1 [03_P_N]         IC50       < 10 µM
2  Cc1ccc(/N=C2\S/C(=C\c3ccc4[nH]ccc4c3)C(=O)N2c2ccc(C)cc2)cc1 [03_A_A]         IC50      > 100 µM
3  O=C1/C(=C/c2ccc3[nH]cnc3c2)S/C(=N\c2ccc(F)cc2)N1C1CCCCC1 [04_B_I]         IC50       22.9 µM
4  Cc1ccc(/N=C2\S/C(=C\c3ccc4c(c3)OCCO4)C(=O)N2C2CCCCC2)cc1 [24_A_I]         IC50      > 100 µM

input: Tell me measured IC50 for COc1ccc(C/N=C2\S/C(=C\c3ccc4c(c3)OCCO4)C(=O)N2c2ccccc2)cc1 [24_Q_N] please.
output: 0.437 µM

input: Tell me measured IC50 for O=C1/C(=C/c2ccc3c(c2)OCCO3)S/C(=N\Cc2ccc(F)cc2)N1c1ccc(Cl)cc1 [24_P_L] please.
output: 0.617 µM

input: Tell me measured IC50 for Cc1ccc(/N=C2\S/C(=C\c3ccc4ncsc4c3)C(=O)N2C2CCCCC2)cc1 [32_A_I] please.
output: > 100 µM

* * *

Each entry below carries its reported log10 IC50.
Test system: AEA cellular uptake (U937 cells)
Assay remarks: [3H]-AEA cellular uptake inhibition in U937 cells
Assay type: cell-based
Condition label: Homo sapiens, U-937, U937 cells, final 100 nM AEA with 0.5 nM [3H]-AEA, 15 min at 37° C.; read-out: AEA uptake inhibition IC50
// units: µM (pre-log); metric: IC50; scale: log10

Study these solved cases before continuing.
>>> df
                                   compound  result_value
0  O=C1/C(=C/c2ccccc2)S/C(=N\c2ccccc2)N1Cc1ccco1          0.26
1  O=C1/C(=C/c2ccc(CO)cc2)S/C(=N\Cc2ccccc2)N1c1ccccc1 [drawing 142]         -0.59
2  CCCCN1C(=O)/C(=C/c2ccc(CO)cc2)S/C1=N\c1ccccc1 [drawing 158]          0.04
3  O=C1/C(=C/c2ccc3[nH]cnc3c2)S/C(=N\c2ccccc2)N1Cc1ccco1          0.26
4  COc1ccc(/C=C2\S/C(=N\c3ccccc3)N(c3ccccc3)C2=O)nc1          0.82
5  O=C1/C(=C/c2ccc(CO)cc2)S/C(=N\c2ccccc2)N1c1ccccc1 [drawing 121]         -0.14

input: Tell me measured log10 IC50 for "COc1ccc(/N=C2\S/C(=C\c3ccccc3)C(=O)N2c2ccccc2)cc1" please.
output: 0.37

input: Tell me measured log10 IC50 for "COc1ccc(/C=C2\S/C(=N\Cc3ccccc3)N(c3ccccc3)C2=O)cc1" please.
output: -0.36

input: Tell me measured log10 IC50 for "CCCCN1C(=O)/C(=C/c2ccc(OC)cc2)S/C1=N\c1ccccc1" please.
output: 0.36

Data origin: patent US10155754B2
